target: UniProtKB P00734
Please respond with reported IC50 for every item in the list.
Give bare numbers, in nM.

>>> experimental_result("O=C(NCc1ccccc1)C(=O)[C@H](CC1CCNCC1)NC(=O)[C@H]1CCCN1C(=O)CC(c1ccccc1)c1ccccc1")
260
>>> experimental_result("O=C(O)CN[C@H](CC1CCCCC1)C(=O)NCC(=O)NC(CC1CCNCC1)C(=O)c1nccs1 (some centres undefined)")
19400
>>> experimental_result("CCS(=O)(=O)N[C@H](CC1CCCCC1)C(=O)N1CCC[C@H]1C(=O)NC(CC1CCNCC1)C(=O)c1nccs1 (some centres undefined)")
160

Query: Quick one: IC50 of CN(CC(=O)NC(CC1CCNCC1)C(=O)c1nccs1)C(=O)[C@@H](CC1CCCCC1)NCC(=O)O (some centres undefined) ?
Result: 4800

----------
target: Coagulation factor X (Homo sapiens, UniProt P00742); assay: Inhibitory activity against Coagulation factor X
Sequence (P00742 41-179 limits assumed): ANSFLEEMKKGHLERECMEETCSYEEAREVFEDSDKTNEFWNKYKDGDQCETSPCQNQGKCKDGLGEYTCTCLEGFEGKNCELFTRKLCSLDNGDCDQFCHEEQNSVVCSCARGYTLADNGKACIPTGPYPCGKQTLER
Sequence (P00742 235-488 limits assumed): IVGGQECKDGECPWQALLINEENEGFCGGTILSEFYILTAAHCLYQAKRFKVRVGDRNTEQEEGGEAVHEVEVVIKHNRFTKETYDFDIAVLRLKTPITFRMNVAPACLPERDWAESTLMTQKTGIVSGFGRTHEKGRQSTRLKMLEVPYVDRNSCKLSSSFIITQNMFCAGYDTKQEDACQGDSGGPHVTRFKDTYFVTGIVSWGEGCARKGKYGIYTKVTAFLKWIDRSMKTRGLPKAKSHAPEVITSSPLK
Assay endpoint: IC50 (µM)
Numbers only, in µM.

Query: # get_value(readout='IC50', item= CC1CNc2c(cccc2S(=O)(=O)N[C@@H](CCCNC(=N)N)C(=O)N2CCC(C)C[C@@H]2C(=O)O)C1 (single isomer, unassigned) )
Result: 134

----------
target: Coagulation factor X (Homo sapiens, UniProt P00742); experiment: Inhibitory activity against Coagulation factor X with respect to Argatroban
Assay endpoint: pIC50
Numbers only, as −log10 of the molar value.

The examples below pair each entry with its known result.
>>> experimental_result("O=C(O)CN[C@H](CC1CCCCC1)C(=O)NCC(=O)NC(CC1CCNCC1)C(=O)c1nccs1 (stereo not given in full)")
5.96
>>> experimental_result("O=C(CN1CCCCC(NS(=O)(=O)Cc2ccccc2)C1=O)N[C@@H](CC1CCNCC1)C(=O)C(=O)NCc1ccccc1 (stereo not given in full)")
5.28
>>> experimental_result("CN(CC(=O)NC(CC1CCNCC1)C(=O)c1nccs1)C(=O)[C@@H](CC1CCCCC1)NCC(=O)O (stereo not given in full)")
6.37
>>> experimental_result("O=C(O)CN[C@H](CC1CCCCC1)C(=O)N[C@@H](Cc1ccccc1)C(=O)NC(CC1CCNCC1)C(=O)c1nccs1 (stereo not given in full)")
5.11
>>> experimental_result("CCS(=O)(=O)N[C@H](CC1CCCCC1)C(=O)N1CCC[C@H]1C(=O)NC(CC1CCNCC1)C(=O)c1nccs1 (stereo not given in full)")
5.39

For each entry beneath this line, provide reported pIC50.
1. O=C(NCc1ccccc1)C(=O)[C@H](CC1CCNCC1)NC(=O)[C@H]1CCCN1C(=O)[C@@H]1NCC[C@H]2CCCC[C@H]21
2. O=C(Cn1cccc(NS(=O)(=O)Cc2ccccc2)c1=O)N[C@@H](CC1CCNCC1)C(=O)C(=O)NCc1ccccc1
3. CCS(=O)(=O)N[C@H](CC1CCCCC1)C(=O)N1CCC[C@H]1C(=O)NC(CC1CCNCC1)C(=O)C(=O)O (stereo not given in full)

Result:
5.54
5.44
4.80

Please go through the list and note pIC50 for each compound.
1. CCS(=O)(=O)N[C@H](CC1CCCCC1)C(=O)N1CCC[C@H]1C(=O)N[C@@H](CC1CCNCC1)C(=O)c1nccs1
2. O=C(NCc1ccccc1)C(=O)[C@H](CC1CCNCC1)NC(=O)[C@H]1CCCN1C(=O)CC(c1ccccc1)c1ccccc1

Result:
[5.60, 4.27]
